These measurements were taken from ChEMBL document CHEMBL3885861.

Each record here notes measured K.
- Organism: Rattus norvegicus
- Assay details: Open TG-GATES - Regimen: Daily Repeat
- Type: toxicity, organism-based, Sprague-Dawley
- Design: regimen Daily Repeat, gender Male, age 6 weeks
- Measurement parameters: in vivo, po, 0 mg/kg, […], tissue Plasma, route gavage, dose level Control, time 28 day
Only the number, expressed in meq/L, is required.

Reference set, count: 3
Clc1ccccc1CN1CCc2sccc2C1 [TICLOPIDINE] : 3.8
CO[C@H]1/C=C/O[C@@]2(C)Oc3c(C)c(O)c4c(O)c(c(/C=N/N5CCN(C)CC5)c(O)c4c3C2=O)NC(=O)/C(C)=C\C=C\[C@H](C)[C@H](O)[C@@H](C)[C@@H](O)[C@@H](C)[C@H](OC(C)=O)[C@@H]1C [RIFAMPIN] : 4.9
NC(=O)N/N=C/c1ccc([N+](=O)[O-])o1 [NITROFURAZONE] : 3.4

Would you mind telling me what K value was observed for COc1ccc(Cc2nccc3cc(OC)c(OC)cc23)cc1OC [PAPAVERINE] ? 4.1

Same read-out for C[C@H](CS)C(=O)N1CCC[C@H]1C(=O)O [CAPTOPRIL] ? 4.3

Repeat with CCc1cc(C(N)=S)ccn1 [ETHIONAMIDE] 4.6

----------
- Species: Rattus norvegicus
- Assay details: Open TG-GATES - Regimen: Daily Repeat
- Assay type: toxicity, organism-based, Sprague-Dawley
- Set-up: regimen Daily Repeat, gender Male, age 6 weeks
- Measurement parameters: in vivo, po, 0 mg/kg, […], tissue Blood, route gavage, dose level Control, time 28 day
Quick rule for you: Lym at 80% or higher means yes (1), lower means no (0).

Here are 5 molecules together with their reported answers.
CN(C)CCC=C1c2ccccc2CCc2ccccc21 [AMITRIPTYLINE] : no (0)
CSc1ccc2c(c1)N(CCC1CCCCN1C)c1ccccc1S2 (stereo not drawn) [THIORIDAZINE] : yes (1)
CCCC(CCC)C(=O)O [VALPROIC ACID] : yes (1)
COc1ccc2c(c1)c(CC(=O)O)c(C)n2C(=O)c1ccc(Cl)cc1 [INDOMETHACIN] : yes (1)
NC(=O)N/N=C/c1ccc([N+](=O)[O-])o1 [NITROFURAZONE] : no (0)

Hi, just wondering whether C[C@H](CS)C(=O)N1CCC[C@H]1C(=O)O [CAPTOPRIL] shows Lym of 80% or higher. yes (1)

Can you handle O=C(O)c1cc(/N=N/c2ccc(S(=O)(=O)Nc3ccccn3)cc2)ccc1O [SULFASALAZINE] next? yes (1)

----------
Below: a set of entries, each annotated with reported BUN.
- Organism: Rattus norvegicus
- Assay details: Open TG-GATES - Regimen: Daily Repeat
- Assay type: toxicity, organism-based, Sprague-Dawley
- Set-up: regimen Daily Repeat, gender Male, age 6 weeks
- Measurement parameters: in vivo, po, 0 mg/kg, […], tissue Plasma, route gavage, dose level Control, time 7 day

Solved cases (3 shown):
CCCC(CCC)C(=O)O : 17.2 mg/dL
O=C(O)c1cc(/N=N/c2ccc(S(=O)(=O)Nc3ccccn3)cc2)ccc1O : 16.8 mg/dL
CSc1ccc2c(c1)N(CCC1CCCCN1C)c1ccccc1S2 (stereo not given) : 18.2 mg/dL

Recorded BUN of `Cn1c(=O)c2[nH]cnc2n(C)c1=O.O` , please. 20 mg/dL

Next entry: `NC(=O)N/N=C/c1ccc([N+](=O)[O-])o1` 15.6 mg/dL

And what about the compound `CN(C)CCC=C1c2ccccc2CCc2ccccc21` ? 16 mg/dL

Next compound up: `C[C@H](CS)C(=O)N1CCC[C@H]1C(=O)O` 18.8 mg/dL

Would you kindly repeat that for `COc1ccc(Cc2nccc3cc(OC)c(OC)cc23)cc1OC` ? 19.4 mg/dL

Input `Clc1ccccc1CN1CCc2sccc2C1` 15 mg/dL

Next entry: CCc1cc(C(N)=S)ccn1 [ETHIONAMIDE] 18.4 mg/dL

----------
- Species on record: Rattus norvegicus
- Assay details: Open TG-GATES - Regimen: Daily Repeat
- Format: toxicity, organism-based, Sprague-Dawley
- Set-up: regimen Daily Repeat, gender Male, age 6 weeks
- Measurement parameters: in vivo, po, 0 mg/kg, […], tissue Blood, route gavage, dose level Control, time 14 day
Answer Not met if APTT is under 20 s, and Met if it is 20 s or more.

For orientation, consider the following solved cases.
CCCC(CCC)C(=O)O : Not met
C[C@H](CS)C(=O)N1CCC[C@H]1C(=O)O : Not met
CSc1ccc2c(c1)N(CCC1CCCCN1C)c1ccccc1S2 (centres undefined) : Not met
CCc1cc(C(N)=S)ccn1 [ETHIONAMIDE] : Not met

Does `NC(=O)N/N=C/c1ccc([N+](=O)[O-])o1` have a reported APTT of at least 20 s? Not met

----------
- Organism: Rattus norvegicus
- Assay details: Open TG-GATES - Regimen: Single
- Type: toxicity, organism-based, Sprague-Dawley
- Set-up: regimen Single, gender Male, age 6 weeks
- Measurement parameters: in vivo, po, 1000 mg/kg, 24 h, route gavage, dose level High
Let's look at some molecules and their measured TERMINAL_BW.
Quick reminder: number only, in g, skip the unit.

O=C(O)c1cc(/N=N/c2ccc(S(=O)(=O)Nc3ccccn3)cc2)ccc1O [SULFASALAZINE] : 214
CCc1cc(C(N)=S)ccn1 [ETHIONAMIDE] : 219.4
Clc1ccccc1CN1CCc2sccc2C1 [TICLOPIDINE] : 208.4

What TERMINAL_BW value was documented for this molecule, C[C@H](CS)C(=O)N1CCC[C@H]1C(=O)O [CAPTOPRIL] ? 237.2

Request: O=C(O)c1cn(C2CC2)c2cc(N3CCNCC3)c(F)cc2c1=O [CIPROFLOXACIN] 193.6

----------
Quick list: LDH per entry.
- Species on record: Rattus norvegicus
- Assay details: Open TG-GATES - Regimen: Single
- Assay type: toxicity, organism-based, Sprague-Dawley
- Parameters: regimen Single, gender Male, age 6 weeks
- Measurement parameters: in vivo, po, 300 mg/kg, 24 h, tissue Plasma, route gavage, dose level Middle

O=C(O)c1cc(/N=N/c2ccc(S(=O)(=O)Nc3ccccn3)cc2)ccc1O : 224 IU/L
Clc1ccccc1CN1CCc2sccc2C1 : 120 IU/L
C[C@H](CS)C(=O)N1CCC[C@H]1C(=O)O : 115.6 IU/L
O=C(O)c1cn(C2CC2)c2cc(N3CCNCC3)c(F)cc2c1=O : 93.4 IU/L

From here, focus on the item given below.
Fill blank: measured LDH of the compound CCc1cc(C(N)=S)ccn1 [ETHIONAMIDE] is ____. 106.2 IU/L

----------
- Species on record: Rattus norvegicus
- Assay details: Open TG-GATES - Regimen: Single
- Format: toxicity, organism-based, Sprague-Dawley
- Set-up: regimen Single, gender Male, age 6 weeks
- Measurement parameters: in vivo, po, 0 mg/kg, 6 h, tissue Plasma, route gavage, dose level Control
Property label: A/G
Enter the number alone.

O=C(O)c1cc(/N=N/c2ccc(S(=O)(=O)Nc3ccccn3)cc2)ccc1O : 1.6
CCc1cc(C(N)=S)ccn1 [ETHIONAMIDE] : 1.6
COc1ccc(Cc2nccc3cc(OC)c(OC)cc23)cc1OC : 1.2
NC(=O)N/N=C/c1ccc([N+](=O)[O-])o1 : 0.9
Cn1c(=O)c2[nH]cnc2n(C)c1=O.O : 1.2

The record that follows has no A/G shown yet.
Which A/G value is on record for `CN(C)CCC=C1c2ccccc2CCc2ccccc21` ? 0.9

----------
Quick reference for MCV among some molecules
- Species on record: Rattus norvegicus
- Assay details: Open TG-GATES - Regimen: Single
- Type: toxicity, organism-based, Sprague-Dawley
- Parameters: regimen Single, gender Male, age 6 weeks
- Measurement parameters: in vivo, po, 100 mg/kg, 9 h, tissue Blood, route gavage, dose level Low
Field: value (include unit after the number)

Use these answered entries as a reference point.
C[C@H](CS)C(=O)N1CCC[C@H]1C(=O)O [CAPTOPRIL] : 65.6 fL
O=C(O)c1cn(C2CC2)c2cc(N3CCNCC3)c(F)cc2c1=O [CIPROFLOXACIN] : 67.9 fL
Clc1ccccc1CN1CCc2sccc2C1 [TICLOPIDINE] : 60.5 fL

What measured MCV goes with CCc1cc(C(N)=S)ccn1 [ETHIONAMIDE] ? 64.4 fL

Now the same for O=C(O)c1cc(/N=N/c2ccc(S(=O)(=O)Nc3ccccn3)cc2)ccc1O [SULFASALAZINE] 63 fL

----------
- Species on record: Rattus norvegicus
- Assay details: Open TG-GATES - Regimen: Single
- Assay type: toxicity, organism-based, Sprague-Dawley
- Set-up: regimen Single, gender Male, age 6 weeks
- Measurement parameters: in vivo, po, 300 mg/kg, 3 h, tissue Blood, route gavage, dose level Middle
The reader will find reported MCV values listed item by item below.
# number only, unit fL dropped from output

Completed entries (count: 4):
CCc1cc(C(N)=S)ccn1 [ETHIONAMIDE] : 64.3
Clc1ccccc1CN1CCc2sccc2C1 : 61.6
O=C(O)c1cn(C2CC2)c2cc(N3CCNCC3)c(F)cc2c1=O : 68.2
C[C@H](CS)C(=O)N1CCC[C@H]1C(=O)O : 64.1

Now consider a different compound.
I'd like to know its MCV. The compound in question is `O=C(O)c1cc(/N=N/c2ccc(S(=O)(=O)Nc3ccccn3)cc2)ccc1O` 62.6
